biological target: 5-HT2A receptor (Homo sapiens, UniProt P28223); assay: Functional activity, FLIPR calcium assay in CHO cells expressing human 5-HT2A; assay type: cell-based; set-up: expressed in transfected cells; host or cells: CHO cells; conditions: CHO, read-out: h5-HT2A Relative Efficacy (%)
Sequence (P28223 whole entry): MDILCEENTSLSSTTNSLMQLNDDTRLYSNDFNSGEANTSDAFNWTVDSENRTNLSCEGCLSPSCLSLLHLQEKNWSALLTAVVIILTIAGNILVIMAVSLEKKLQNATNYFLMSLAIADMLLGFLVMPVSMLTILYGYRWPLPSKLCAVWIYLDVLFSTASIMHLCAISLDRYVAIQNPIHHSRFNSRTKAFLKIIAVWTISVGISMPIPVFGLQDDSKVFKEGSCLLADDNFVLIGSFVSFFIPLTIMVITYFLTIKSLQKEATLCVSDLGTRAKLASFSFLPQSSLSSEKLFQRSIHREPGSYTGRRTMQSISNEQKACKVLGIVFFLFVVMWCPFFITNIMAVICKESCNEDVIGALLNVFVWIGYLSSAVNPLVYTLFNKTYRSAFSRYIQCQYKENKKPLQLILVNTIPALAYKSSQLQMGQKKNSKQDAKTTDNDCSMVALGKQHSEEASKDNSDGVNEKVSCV
Counter-ions that a name gives are not always drawn.
Listing of recorded Emax by entry.
Quick reminder: number only, in %, skip the unit.

- MOLECULE: "C[C@H](N)CN1CCc2cc(F)c(Br)cc21 [Example 25]"
  UNIT_ABBREVIATION: "%"
  Emax: 57
- MOLECULE: "C[C@H](N)CN1CCc2ccc(Cl)c(F)c21 [Example 27]"
  UNIT_ABBREVIATION: "%"
  Emax: 41
- MOLECULE: "Cc1ccc2c(c1)N(C[C@H](C)N)CC2 [Example 64, Fumarate]"
  UNIT_ABBREVIATION: "%"
  Emax: 30
- MOLECULE: "C[C@H](N)CN1CCc2ccc(Cl)c(Cl)c21 [Example 23]"
  UNIT_ABBREVIATION: "%"
  Emax: 34
- MOLECULE: "C[C@H](N)CN1CCc2ccc(Br)cc21 [Example 12]"
  UNIT_ABBREVIATION: "%"
  Emax: 49
- MOLECULE: "C[C@H](N)CN1CCc2c(Cl)cccc21 [Example 38]"
  UNIT_ABBREVIATION: "%"
  Emax: 26

*Q* State, in one line, measured Emax of C[C@H](N)CN1CCc2ccc(-c3cccnc3)cc21 [Example 47]
*A* 5

*Q* Query Emax for C[C@H](N)CN1CCc2c(F)cccc21 [Example 35]
*A* 30

###

molecular target: 5-HT2A receptor (Homo sapiens); experiment: Binding to 5-HT2A receptor, [125I]-DOI radioligand, CHO cell line; design: expressed in transfected cells; host or cells: CHO cell line; conditions: [125I]-DOI, CHO cell line; read-out: Ki (2A)
Where a name gives a salt, the structure may show the parent alone.
The reader will find reported Ki values listed item by item below.

- COMPOUND: "NCCN1CCc2ccc(Cl)cc21 [Example 51, Fumarate]"
  TARGET_OR_TEST_SYSTEM: "5-HT2A receptor (Homo sapiens)"
  Ki: "1.11 µM"

Field: next compound
*Q* Let me know recorded Ki for NCCN1CCc2ccc(Br)cc21 [Example 50, Fumarate] , thanks.
*A* 0.332 µM

###

Target: 5-HT2C receptor (Homo sapiens)
Sequence (P28335 33-458): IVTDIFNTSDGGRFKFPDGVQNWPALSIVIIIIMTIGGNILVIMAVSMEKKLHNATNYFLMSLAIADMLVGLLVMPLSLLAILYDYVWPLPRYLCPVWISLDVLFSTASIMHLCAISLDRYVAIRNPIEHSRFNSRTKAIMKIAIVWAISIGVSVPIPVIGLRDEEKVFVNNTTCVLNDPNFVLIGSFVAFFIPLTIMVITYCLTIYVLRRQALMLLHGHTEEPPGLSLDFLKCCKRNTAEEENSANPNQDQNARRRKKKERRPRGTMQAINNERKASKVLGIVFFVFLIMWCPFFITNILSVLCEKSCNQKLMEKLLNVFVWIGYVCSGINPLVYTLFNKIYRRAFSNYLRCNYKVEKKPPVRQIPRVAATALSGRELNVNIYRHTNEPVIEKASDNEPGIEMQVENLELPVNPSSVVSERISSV
Experiment: Binding to 5-HT2C receptor, [3H]-5-HT radioligand, CHO cell line
Parameters: expressed in transfected cells; host or cells: CHO cell line
Counter-ions that a name gives are not always drawn.
This section presents compounds with their documented pKi values.
Please express pKi as -log10 of the molar concentration.

- COMPOUND: "C[C@H](N)CN1CCc2ccc(Cl)cc21 [Example 10, Fumarate]"
  MEASURED_VALUE: 7.26
- COMPOUND: "COc1ccc2c(c1)N(C[C@H](C)N)CC2 [Example 13]"
  MEASURED_VALUE: 6.91
- COMPOUND: "C[C@H](N)CN1CCc2ccc(Br)cc21 [Example 12]"
  MEASURED_VALUE: 7.11
- COMPOUND: "C[C@H](N)CN1CCc2ccc(C(F)(F)F)cc21 [Example 24]"
  MEASURED_VALUE: 6.63
- COMPOUND: "C[C@H](N)CN1CCc2cc(F)c(Br)cc21 [Example 25]"
  MEASURED_VALUE: 7.20

*Q* Note pKi for the compound shown: C[C@@H](N)CN1CCc2ccc(C(F)(F)F)cc21 [Example 26]
*A* 5.94

*Q* Tell us which pKi value is on record for C[C@H](N)CN1CCc2cc(F)c(F)cc21 [Example 22]
*A* 6.59

*Q* Identify measured pKi associated with CC(N)CN1CCc2ccc(Cl)cc21 (racemic) [Example 1, Hydrochloride]
*A* 6.45

###

Molecular target: 5-HT2C receptor (Homo sapiens)
Sequence (P28335 33-458): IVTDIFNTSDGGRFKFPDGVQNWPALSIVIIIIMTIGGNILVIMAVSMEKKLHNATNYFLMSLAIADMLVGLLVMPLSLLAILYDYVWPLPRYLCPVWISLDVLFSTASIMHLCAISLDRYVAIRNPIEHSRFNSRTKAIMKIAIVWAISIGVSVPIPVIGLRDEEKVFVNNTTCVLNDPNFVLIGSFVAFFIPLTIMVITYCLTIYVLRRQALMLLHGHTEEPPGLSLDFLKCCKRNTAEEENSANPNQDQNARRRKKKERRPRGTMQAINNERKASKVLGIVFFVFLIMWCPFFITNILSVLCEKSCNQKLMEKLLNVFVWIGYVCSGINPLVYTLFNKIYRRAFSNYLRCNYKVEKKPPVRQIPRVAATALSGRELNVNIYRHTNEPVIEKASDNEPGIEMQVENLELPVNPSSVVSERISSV
Experiment: Functional activity, FLIPR calcium assay in CHO cells expressing human 5-HT2C
Format: cell-based
Parameters: expressed in transfected cells; host or cells: CHO cells
Settings: CHO, read-out: h5-HT2C Relative Efficacy (%)
Counter-ions that a name gives are not always drawn.
EXPERIMENTAL_READOUT: Emax (%)
Please reply with the bare figure in % and do not write the unit itself.

Sample answers from the record:
- MOLECULE: "C[C@H](N)CN1CCc2c(Cl)cccc21"
  TARGET_OR_TEST_SYSTEM: "5-HT2C receptor (Homo sapiens)"
  MEASURED_VALUE: 63
- MOLECULE: "C[C@H](N)CN1CCc2cc(F)c(Br)cc21"
  TARGET_OR_TEST_SYSTEM: "5-HT2C receptor (Homo sapiens)"
  MEASURED_VALUE: 81
- MOLECULE: "C[C@H](N)CN1CCc2cc(F)c(I)cc21 [Example 61, Fumarate]"
  TARGET_OR_TEST_SYSTEM: "5-HT2C receptor (Homo sapiens)"
  MEASURED_VALUE: 68
- MOLECULE: "C[C@H](N)CN1CCc2ccc(C(F)(F)F)cc21"
  TARGET_OR_TEST_SYSTEM: "5-HT2C receptor (Homo sapiens)"
  MEASURED_VALUE: 72

*Q* # return recorded Emax for entry C[C@H](N)CN1CCc2ccc(Cl)c(Cl)c21
*A* 76

###

A collection of molecules and their measured Ki
molecular target: human 5-HT2B receptors (Homo sapiens, UniProt P41595); construct: expressed in transfected cells; host or cells: CHO cell line; assay: Binding to 5-HT2B receptor, [3H]-5-HT radioligand, CHO cell line; settings: [3H]-5-HT, human receptor, CHO cell line; read-out: Ki (2B)
Sequence (P41595 whole entry): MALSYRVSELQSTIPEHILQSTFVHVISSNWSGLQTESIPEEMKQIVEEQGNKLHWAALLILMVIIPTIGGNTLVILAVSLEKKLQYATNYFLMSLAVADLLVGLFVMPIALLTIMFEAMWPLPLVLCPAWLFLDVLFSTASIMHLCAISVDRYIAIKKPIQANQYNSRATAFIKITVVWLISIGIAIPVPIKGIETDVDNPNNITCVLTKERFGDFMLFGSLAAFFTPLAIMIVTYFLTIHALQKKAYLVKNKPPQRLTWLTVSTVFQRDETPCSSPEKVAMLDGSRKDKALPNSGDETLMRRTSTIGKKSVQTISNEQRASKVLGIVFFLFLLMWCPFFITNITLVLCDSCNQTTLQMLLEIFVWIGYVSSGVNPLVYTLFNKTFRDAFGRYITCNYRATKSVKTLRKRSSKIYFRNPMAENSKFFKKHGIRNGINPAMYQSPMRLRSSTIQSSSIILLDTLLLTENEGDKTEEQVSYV
Where a name gives a salt, the structure may show the parent alone.
Give the value, in units of nM, as a plain number.

- MOLECULE: "NCCN1CCc2ccc(Cl)cc21 [Example 51, Fumarate]"
  UNIT_ABBREVIATION: "nM"
  Ki: 140

Now consider the entry below.
*Q* Print human 5-HT2B receptors (Homo sapiens, UniProt P41595) Ki for NCCN1CCc2ccc(Br)cc21 [Example 50, Fumarate] .
*A* 159

###

molecular target: 5-HT2C receptor (Homo sapiens, UniProt P28335); assay: Functional activity, FLIPR calcium assay in CHO cells expressing human 5-HT2C; assay type: cell-based; set-up: expressed in transfected cells; host or cells: CHO cells
Where a name gives a salt, the structure may show the parent alone.
Entries get a class label from measured EC50. See ranges: c1 = under 80 nM, c2 = from 80 nM up to 400 nM, c3 = 400 nM and over

- COMPOUND: "CCCSc1ccc2c(c1)N(C[C@H](C)N)CC2 [Example 41]"
  LABEL: "c1"
- COMPOUND: "C[C@H](N)CN1CCc2cc(F)c(F)cc21 [Example 22]"
  LABEL: "c2"
- COMPOUND: "COc1ccc2c(c1)N(C[C@H](C)N)CC2 [Example 13]"
  LABEL: "c1"
- COMPOUND: "C[C@@H](N)CN1CCc2cccc(Br)c21 [Example 19]"
  LABEL: "c3"
- COMPOUND: "Cc1cc2c(cc1Cl)N(C[C@H](C)N)CC2 [Example 14]"
  LABEL: "c3"

Consider the additional compound presented here.
*Q* Which bin should I file C[C@H](N)CN1CCc2cc(F)c(I)cc21 [Example 61, Fumarate] under?
*A* c1
